Test system: MDA-MB-468 breast
test-details: NCI tumour cell line growth inhibition, 48 h
Consider the reported TGI of an entry and match it to a band in low class = under 3 µM, middle class = from 3 µM up to 6 µM, high class = 6 µM and over

[
  {
    "compound": "Nc1nc(N)c2nc(CNc3ccc(C(=O)CC(CCC(=O)O)C(=O)O)cc3)cnc2n1 (configuration not stated)",
    "measurement-target": "MDA-MB-468 breast",
    "assigned-category": "low class"
  },
  {
    "compound": "COc1ccc(OC)c(/C=C/c2nnc(Nc3ccc(Cl)cc3)o2)c1",
    "measurement-target": "MDA-MB-468 breast",
    "assigned-category": "high class"
  },
  {
    "compound": "O=S(=O)(NCCNc1cc(-c2cn(-c3ccccc3)nc2-c2cccc(O)c2)ccn1)c1ccc(C(F)(F)F)cc1",
    "measurement-target": "MDA-MB-468 breast",
    "assigned-category": "middle class"
  },
  {
    "compound": "COc1cc2c(c(OC)c1OC)-c1ccc(OC)c(=O)cc1[C@@H](NC(=O)CCl)CC2",
    "measurement-target": "MDA-MB-468 breast",
    "assigned-category": "low class"
  },
  {
    "compound": "C#C[C@@]1(O)[C@@H](CO)O[C@@H](n2cc(Cl)c3c(N)ncnc32)[C@@H]1O",
    "measurement-target": "MDA-MB-468 breast",
    "assigned-category": "low class"
  },
  {
    "compound": "O=c1ncc(-c2ccc(C(F)(F)F)cc2)c(NC2CCCCCC2)[nH]1",
    "measurement-target": "MDA-MB-468 breast",
    "assigned-category": "high class"
  }
]

Hi, small favor: classify "COc1cc2c(c(OC)c1OC)-c1ccc([O-])c(=O)cc1[C@@H](NC(C)=O)CC2.COc1cc2c(c(OC)c1OC)-c1ccc([O-])c(=O)cc1[C@@H](NC(C)=O)CC2.[Cu+2]" by its TGI when you get a moment.
high class

Class (by measured TGI) for "O=c1oc2ccc(Cl)cc2c(=O)n1-c1ccc(Cl)cc1F"
low class

Band for the recorded TGI of "Nc1ccccc1NC(=O)c1ccc(CSc2nc(N3CCOCC3)c3cccn3n2)cc1" ?
high class

Class? Entry: "CC(C)(C)c1cc(NC(=O)Nc2ccc(-c3cn4c5c(sc4n3)CCc3cn(CCCN4CCCCC4)cc3-5)cc2)no1"
middle class

Place this compound in its band: "O=C1C(=O)c2cc([N+](=O)[O-])ccc2-c2ccccc21"
middle class

Category of "COc1ccc(NC(=O)[C@H](C)NC(=O)OC(C)(C)C)cc1C(=O)Nc1cccc(-c2cc(=O)c3c(OC)c(OC)c(OC)cc3o2)c1" :
high class
